Answer each item with its documented Cytotoxicity GI50 Hela cells.
# Test system: HELA cells (Acc57)
# run-description: Cytotoxicity assay, MTT reduction (LC 50, GI 50)
# Format: cell-based
# Experimental: The cytotoxicity of the peptides to HELA cells (Acc57) and COS-7 cells (CRL-1651) was determined using the MIT reduction assay [see ref. 2 and 3, below]. […] At this point, time zero (Tz) was determined by MTT reduction (see below). […] The absorbance at 595 nm of the solubilized product was measured (OD595peptide). For each concentration averages were calculated from triplicates. […]
Non-standard residues stand in square brackets, D forms with d. Residues, ends and D or L forms follow the SMILES beside them. dDab = NCC[C@@H](N)C(=O)O; Orn = NCCC[C@H](N)C(=O)O; Dab = NCC[C@H](N)C(=O)O
State just the number; it will be interpreted in µM.

Find the recorded Cytotoxicity GI50 Hela cells belonging to CC[C@H](C)[C@@H]1NC(=O)[C@H](Cc2c[nH]c3ccccc23)NC(=O)[C@H](C)NC(=O)[C@@H]2CCCN2C(=O)[C@H]2CCCN2C(=O)[C@H](CCN)NC(=O)[C@H](C)NC(=O)[C@H](CCN)NC(=O)[C@H](CCN)NC(=O)[C@H](Cc2c[nH]c3ccccc23)NC(=O)[C@H](CCN)NC(=O)[C@H](CCN)NC(=O)[C@H](CCCCN)NC(=O)[C@H](CCN)NC1=O [Example 22] (cyclo(AWI[Dab]K[Dab][Dab]W[Dab][Dab]A[Dab][dP]P)) and report it.
50

What do we get for CC[C@H](C)[C@@H]1NC(=O)[C@H](Cc2ccc(O)cc2)NC(=O)[C@H](CC(=O)O)NC(=O)[C@@H]2CCCN2C(=O)[C@H]2CCCN2C(=O)[C@H](CCN)NC(=O)[C@H](C)NC(=O)[C@H](CCN)NC(=O)[C@H](CCN)NC(=O)[C@H](Cc2c[nH]c3ccccc23)NC(=O)[C@H](CCN)NC(=O)[C@@H](CCN)NC(=O)[C@H](CCCN)NC(=O)[C@H](CCN)NC1=O [Example 43] (cyclo(DYI[Dab][Orn][dDab][Dab]W[Dab][Dab]A[Dab][dP]P)) ?
50

---

# Tested on: P. aeruginosa
Non-standard residues stand in square brackets, D forms with d. Residues, ends and D or L forms follow the SMILES beside them. dDab = NCC[C@@H](N)C(=O)O; hSer = N[C@@H](CCO)C(=O)O; Orn = NCCC[C@H](N)C(=O)O; Dab = NCC[C@H](N)C(=O)O; Abu = CC[C@H](N)C(=O)O
Param label: returns MET when Average MIC < 0.2 µg/mL, returns NOT MET otherwise, including exact equality.

Criterion: Average MIC strictly below 0.2 µg/mL. Is it met by CC[C@H](C)[C@@H]1NC(=O)[C@H](Cc2c[nH]c3ccccc23)NC(=O)[C@H]([C@@H](C)O)NC(=O)[C@@H]2CCCN2C(=O)[C@H]2CCCN2C(=O)[C@H](CCN)NC(=O)[C@H](CCO)NC(=O)[C@H](CCN)NC(=O)[C@H](CCN)NC(=O)[C@H](Cc2c[nH]c3ccccc23)NC(=O)[C@H](CCN)NC(=O)[C@H](CCN)NC(=O)[C@H](CCCCN)NC(=O)[C@H](CCN)NC1=O [Example 35] (cyclo(TWI[Dab]K[Dab][Dab]W[Dab][Dab][hSer][Dab][dP]P)) ?
MET

What do we get for CC[C@H](C)[C@@H]1NC(=O)[C@H](Cc2c[nH]c3ccccc23)NC(=O)[C@H](C)NC(=O)[C@@H]2CCCN2C(=O)[C@H]2CCCN2C(=O)[C@H](CCN)NC(=O)[C@H](C)NC(=O)[C@H](CCN)NC(=O)[C@H](CCN)NC(=O)[C@H](Cc2c[nH]c3ccccc23)NC(=O)[C@H](CCN)NC(=O)[C@H](CCN)NC(=O)[C@H](CCCCN)NC(=O)[C@H](CCN)NC1=O [Example 22] (cyclo(AWI[Dab]K[Dab][Dab]W[Dab][Dab]A[Dab][dP]P)) ?
MET

What do we get for CC[C@H](C)[C@@H]1NC(=O)[C@H](Cc2c[nH]c3ccccc23)NC(=O)[C@H]([C@@H](C)O)NC(=O)[C@@H]2CCCN2C(=O)[C@H]2CCCN2C(=O)[C@H](CCN)NC(=O)[C@H](C)NC(=O)[C@H](CCN)NC(=O)[C@H](CCN)NC(=O)[C@H](Cc2c[nH]c3ccccc23)NC(=O)[C@H](CCN)NC(=O)[C@H](CCN)NC(=O)[C@H](CCCCN)NC(=O)[C@H](CCC(N)=O)NC1=O [Example 29] (cyclo(TWIQK[Dab][Dab]W[Dab][Dab]A[Dab][dP]P)) ?
MET

What do we get for CC[C@H](C)[C@@H]1NC(=O)[C@H](Cc2c[nH]c3ccccc23)NC(=O)[C@H]([C@@H](C)O)NC(=O)[C@@H]2CCCN2C(=O)[C@H]2CCCN2C(=O)[C@H](CCN)NC(=O)[C@H](C)NC(=O)[C@H](CCN)NC(=O)[C@H](CCN)NC(=O)[C@H](Cc2c[nH]c3ccccc23)NC(=O)[C@H](CCCCN)NC(=O)[C@H](CCN)NC(=O)[C@H](CCCCN)NC(=O)[C@H](CCN)NC1=O [Example 26] (cyclo(TWI[Dab]K[Dab]KW[Dab][Dab]A[Dab][dP]P)) ?
NOT MET

What do we get for CC[C@H](C)[C@@H]1NC(=O)[C@H](Cc2c[nH]c3ccccc23)NC(=O)[C@H]([C@@H](C)O)NC(=O)[C@@H]2CCCN2C(=O)[C@H]2CCCN2C(=O)[C@H](CO)NC(=O)[C@H](C)NC(=O)[C@H](CCN)NC(=O)[C@H](CCN)NC(=O)[C@H](Cc2c[nH]c3ccccc23)NC(=O)[C@H](CCN)NC(=O)[C@@H](CCN)NC(=O)[C@H](CCCN)NC(=O)[C@H](CCN)NC1=O [Example 49] (cyclo(TWI[Dab][Orn][dDab][Dab]W[Dab][Dab]AS[dP]P)) ?
MET

What do we get for CC[C@@H]1NC(=O)[C@H](CCN)NC(=O)[C@H](CCN)NC(=O)[C@H](Cc2c[nH]c3ccccc23)NC(=O)[C@H](CCN)NC(=O)[C@H](CCN)NC(=O)[C@H](CCCCN)NC(=O)[C@H](CCN)NC(=O)[C@H]([C@@H](C)CC)NC(=O)[C@H](Cc2c[nH]c3ccccc23)NC(=O)[C@H]([C@@H](C)O)NC(=O)[C@@H]2CCCN2C(=O)[C@H]2CCCN2C(=O)[C@H](CCN)NC1=O [Example 6] (cyclo(TWI[Dab]K[Dab][Dab]W[Dab][Dab][Abu][Dab][dP]P)) ?
MET

What do we get for CC[C@H](C)[C@@H]1NC(=O)[C@H](Cc2c[nH]c3ccccc23)NC(=O)[C@H]([C@@H](C)O)NC(=O)[C@@H]2CCCN2C(=O)[C@H]2CCCN2C(=O)[C@H](CCN)NC(=O)[C@H]([C@@H](C)O)NC(=O)[C@H](CCN)NC(=O)[C@H](CCN)NC(=O)[C@H](Cc2c[nH]c3ccccc23)NC(=O)[C@H](CCN)NC(=O)[C@H](CCN)NC(=O)[C@H](CCCCN)NC(=O)[C@H](CCN)NC1=O [Example 16] (cyclo(TWI[Dab]K[Dab][Dab]W[Dab][Dab]T[Dab][dP]P)) ?
MET

What do we get for CC[C@H](C)[C@@H]1NC(=O)[C@H](Cc2c[nH]c3ccccc23)NC(=O)[C@H]([C@@H](C)O)NC(=O)[C@@H]2CCCN2C(=O)[C@H]2CCCN2C(=O)[C@H](CCCCN)NC(=O)[C@H](C)NC(=O)[C@H](CCN)NC(=O)[C@H](CCN)NC(=O)[C@H](Cc2c[nH]c3ccccc23)NC(=O)[C@H](CCN)NC(=O)[C@H](CCN)NC(=O)[C@H](CCCCN)NC(=O)[C@H](CCN)NC1=O [Example 28] (cyclo(TWI[Dab]K[Dab][Dab]W[Dab][Dab]AK[dP]P)) ?
MET

What do we get for CC[C@H](C)[C@@H]1NC(=O)[C@H](Cc2ccc(O)cc2)NC(=O)[C@H](CC(=O)O)NC(=O)[C@@H]2CCCN2C(=O)[C@H]2CCCN2C(=O)[C@H](CCN)NC(=O)[C@H](C)NC(=O)[C@H](CCN)NC(=O)[C@H](CCN)NC(=O)[C@H](Cc2c[nH]c3ccccc23)NC(=O)[C@H](CCN)NC(=O)[C@@H](CCN)NC(=O)[C@H](CCCCN)NC(=O)[C@H](CCN)NC1=O [Example 42] (cyclo(DYI[Dab]K[dDab][Dab]W[Dab][Dab]A[Dab][dP]P)) ?
NOT MET
